Biological target: human cannabinoid CB2 receptor (Homo sapiens, UniProt P34972)
Construct: expressed in transfected cells; host or cells: Saccharomyces cerevisiae strain MMY23 (cassette integrated at the ura3 locus, GPD promoter)
Sequence (P34972 whole entry): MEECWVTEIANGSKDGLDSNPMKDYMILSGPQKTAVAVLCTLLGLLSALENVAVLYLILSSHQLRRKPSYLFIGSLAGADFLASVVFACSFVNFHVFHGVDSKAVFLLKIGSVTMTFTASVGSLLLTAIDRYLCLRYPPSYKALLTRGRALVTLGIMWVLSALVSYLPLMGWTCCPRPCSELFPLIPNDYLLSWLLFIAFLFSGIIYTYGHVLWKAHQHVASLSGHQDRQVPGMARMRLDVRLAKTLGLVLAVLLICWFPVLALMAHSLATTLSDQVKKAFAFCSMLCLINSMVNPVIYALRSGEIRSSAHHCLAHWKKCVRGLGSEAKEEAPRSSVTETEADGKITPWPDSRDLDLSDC
Experiment: Cannabinoid CB2 receptor agonist activity in yeast cells (FDGlu fluorescence)
Format: cell-based
Settings: yeast (Saccharomyces cerevisiae) expressing human CB2; agonist; 30° C. for 24 hours; read-out: EC50 at the cloned human cannabinoid CB2 receptor
For each record, write down the corresponding EC50.

Ask: For human cannabinoid CB2 receptor (Homo sapiens, UniProt P34972), provide EC50 of CC(C)c1cc(Nc2ccc(F)c(Cl)c2)ncc1CNCC1CC1 please.
Reply: 300 to 1000 nM

Ask: Query CC(C)CNCc1cnc(Nc2cccc(C(F)(F)F)c2F)cc1C(C)C next
Reply: < 300 nM

Ask: Query Fc1ccc(CNCc2cnc(Nc3ccc(Cl)cc3Cl)cc2C(F)(F)F)cc1 next
Reply: 300 to 1000 nM

Ask: Query Clc1cccc(Nc2cc(C3CC3)c(CNC3CCOCC3)cn2)c1 next
Reply: 300 to 1000 nM

Ask: Query CC(C)c1cc(N(C)c2cccc(Br)c2)ncc1CNCC1CCOCC1 next
Reply: < 300 nM

Ask: Query CC(C)c1cc(Nc2cc(F)cc(F)c2)ncc1CNCC1CC1 next
Reply: 300 to 1000 nM

Ask: Query CC(C)CNCc1cnc(Nc2cccc(C(F)(F)F)c2)cc1C(C)C next
Reply: < 300 nM

Ask: Query CC(C)c1cc(Nc2ccc(OC(F)(F)F)cc2Br)ncc1CNCC1CCC1 next
Reply: 300 to 1000 nM

Ask: Query CC(C)c1cc(Nc2ccc(F)c(Cl)c2)ncc1CNCC1CCC1 next
Reply: < 300 nM

Ask: Query Clc1cccc(Nc2cc(C3CC3)c(CNC3CC3)cn2)c1 next
Reply: < 300 nM

Ask: Query Clc1cccc(Nc2cc(C3CC3)c(CNC3CCC3)cn2)c1 next
Reply: < 300 nM

Ask: Query CC(C)c1cc(Nc2cccc(Cl)c2)ncc1CN1CCC1 next
Reply: < 300 nM

Ask: Query Fc1ccc(Nc2cc(C3CC3)c(CNCC3CCCC3)cn2)cc1Cl next
Reply: < 300 nM

Ask: Query Cc1c(Cl)cccc1Nc1cc(C2CC2)c(CNCC2CCC2)cn1 next
Reply: 300 to 1000 nM

Ask: Query CC(C)CNCc1cnc(Nc2cccc(Br)c2)cc1C(C)C next
Reply: < 300 nM

Ask: Query CC(C)c1cc(Nc2ccc(Cl)cc2F)ncc1CNCC1CCC1 next
Reply: 300 to 1000 nM

Ask: Query CC(C)c1cc(Nc2cc(F)cc(F)c2)ncc1CNCC1CCC1 next
Reply: < 300 nM

---

Molecular target: human cannabinoid CB2 receptor (Homo sapiens)
Construct: expressed in transfected cells; host or cells: Saccharomyces cerevisiae strain MMY23 (cassette integrated at the ura3 locus, GPD promoter)
Experiment: Cannabinoid CB2 receptor agonist activity in yeast cells (FDGlu fluorescence)
Format: cell-based
Where a name gives a salt, the structure may show the parent alone.
For each record, write down the corresponding EC50.

Ask: For human cannabinoid CB2 receptor (Homo sapiens), provide EC50 of CC(C)c1cc(Nc2ccc(Cl)cc2Cl)ncc1CN1CCSCC1 [Example 61, dihydrochloride] please.
Reply: < 300 nM

Ask: Query CC(C)c1cc(Nc2ccc(F)c(F)c2)ncc1CNCC1CC1 [Example 37] next
Reply: 300 to 1000 nM

Ask: Query CC(C)c1cc(Nc2cccc(Cl)c2)ncc1CNC(C)(C)C [Example 65, dihydrochloride] next
Reply: 300 to 1000 nM

Ask: Query Fc1ccc(CNCc2cnc(Nc3cccc(Cl)c3)cc2C2CC2)cc1 [Example 52, dihydrochloride] next
Reply: < 300 nM

Ask: Query CC(C)c1cc(Nc2cccc(Cl)c2)ncc1CN1CCCC1 [Example 58, dihydrochloride] next
Reply: < 300 nM

Ask: Query CC(C)c1cc(Nc2cccc(C(F)(F)F)c2)ncc1CNCC1CC1 [Example 30] next
Reply: 300 to 1000 nM

Ask: Query CC(C)c1cc(Nc2ccc(Cl)c(Cl)c2)ncc1CNCC1CCC1 [Example 17] next
Reply: < 300 nM

Ask: Query CC(C)c1cc(Nc2cccc(C(F)(F)F)c2F)ncc1C(C)NCC1CCC1 (centres unmarked) [Example 56, dihydrochloride] next
Reply: < 300 nM
